B1: glmS ribozyme (parent)
chain: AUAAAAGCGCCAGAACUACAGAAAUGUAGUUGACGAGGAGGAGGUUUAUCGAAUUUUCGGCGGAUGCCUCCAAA

Variants of: B1
test-name: self-cleavage kobs at 40 uM GlcN6P; higher = faster cleavage; RNA array
experimental-context: with glucosamine-6-phosphate
This sample holds only a part of the variants without activity.
reported-property: self-cleavage kobs at 40 uM GlcN6P

Consider the worked cases shown below.
A14G G37A U54A	7.89e-05 s⁻¹
A6G A53C U54A	< 1e-05 s⁻¹

Note: attention shifts to another entry.
State the recorded self-cleavage kobs at 40 uM GlcN6P for this entry: G13A U47A G60U
< 1e-05 s⁻¹
